# key: entry, value: Top
target: T1, cynomolgus monkey GPRC5D (cynomolgus monkey); experiment: FACS, HEK293T-cynoGPRC5D cells
T1 construct: whole, on cells; HEK293T-cynoGPRC5D cells; also called cynoGPRC5D
QUANTITY: Top

ch20C4E1 (antibody, V domains shown) VH: EVRLVESGGALVRPGGSLKLSCAASGFTFSDYGMHWVRQAPEKGLEWIAFISSVSFTIYYADTVKGRFTISRDNAKNTLFLQMTSLRSEDTALYYCTRLGPHWYFDVWGTGTTVTVSS VL: DVVLTQTPLSLPVSLGDQASISCRSSQSLVYSNGNTYLHWFLQKPGQSPQLLIYKVSNRFSGVPDRFSGSGSGTDFTLKISRVEAEDLGVYFCSQSTPVPTFGGGTKLEIK :: 45800
ch108C4C12 (antibody, V domains shown) VH: EVQLQQSGPELVKPGASVKMSCKASGYTFTSYVIHWVKQKTGQGLEWIGYFNPYNDGTKYNEEFKGKATLTSDKSSNTAYMELNSLTSDDSAVYFCARGGVRRYFDVWGAGTTVTVSS VL: DIQMTQSPSSLSASLGERVSLTCRASQDIGSNLNWLQQEPDGTIKRLIYATFGLDSGVPKRFSGSRSGSDYSLTISSLESEDFVDYYCQQYASFPYTFGGGTKLEIK :: 39700
ch90G6H3 (antibody, V domains shown) VH: QAYLQQSGAELVRSGASVKMSCKASGYTFTSYIMHWVKQTPGQGLEWIGYIYPGNGGTNYNQKFKDKATLSADTSSSTAYMQINSLTSEDSAVYFCARWGLRQGFAYWGQGTLVSVSA VL: DIVMTQSQKFMSTSVGDRVSVTCKASQNVGGNVAWYQQKPGQSPKALIYSTSYRNSGVPDRFTGSGSGTDFTLTISNVQSEDLAEYFCQQYNSYPFTFGSGTKLEIR :: 61600
ch110B4H5 (antibody, V domains shown) VH: EVQLQQSGPELVKPGASVKMSCKASGYTFTFYIMHWVKQKPGQGPEWIGYINPYNDGTKYNAKFKGKATLSSDRSSSTAYMELSSLTSEDSAVYYCARGGVRRYFDVWGAGTPVTVSS VL: DIQMTQSPSSLSASLGERVSLTCRSSQDIGSNLNWLQQEPDGTIKRLIYATFSLDSGVPKRFSGSRSGSHYSLTISSLESEDFVVYYCLQYGSFPYTFGGGTKLEIK :: 27600
ch12G12C2 (antibody, V domains shown) VH: QIQLVQSGPELKMPGETVKISCKASGYTFTTYGLSWVKQAPGKGLKWMGWINTFSGVPIYADDFKGRFAFSLETSASTAYLQINNLKNEDTATYFCARWGIRQRGDYWGQGATLTVSS VL: QIVLTQSPAIMSASPGEKVTMTCSASSSVSYLHWYQQKSGTSPKRWIYDTSKLASGVPVRFSGSGSETSYSLTISSMEAEDAATYYCQQWTSNPPTFGGGTKLEIK :: 28200
